Task for the reader: assign each of the following compounds its reported IC50.
# target_under_test: CDK2/CycE (Homo sapiens (Human))
# assay_details: CDK2/CycE kinase assay (TR-FRET)
# condition_context: 10 μM ATP; read-out: CDK2 avg (IC50 [mol/l])

The cases that follow already have their IC50 on record.
Prompt: Find the recorded IC50 belonging to CCOC(=O)c1cnc(Nc2snc(C)c2C(=O)Nc2ccc(F)c(F)c2)o1 and report it.
Response: > 20 µM

Prompt: Find the recorded IC50 belonging to CCOC(=O)c1coc(Nc2snc(C)c2C(=O)Nc2ccc(F)c(F)c2)n1 and report it.
Response: > 20 µM

Prompt: Find the recorded IC50 belonging to COc1ccc(NC(=O)c2c(C)nsc2Nc2nc3ccc(F)cc3s2)cn1 and report it.
Response: > 20 µM

Prompt: Find the recorded IC50 belonging to Cc1nsc(Nc2ccc(C(F)(F)F)nn2)c1C(=O)Nc1ccc(F)c(F)c1 and report it.
Response: > 20 µM

Look up IC50 for the entries below, preserving their order.
1. CCc1ccccc1NC(=O)c1c(C)nsc1Nc1ccnc(C#N)n1
2. Cc1nsc(Nc2ccc(C#N)cn2)c1C(=O)Nc1ccc(OC(C)C)nc1
3. CCc1ccccc1NC(=O)c1c(C)nsc1Nc1ncccc1C(F)(F)F

Response:
["> 20 µM", "> 20 µM", "> 20 µM"]

Look up IC50 for the entries below, preserving their order.
1. CCc1ccccc1NC(=O)c1c(C)nsc1Nc1ncnc2ccccc12
2. CCc1ccccc1NC(=O)c1c(C)nsc1Nc1nc(C)nc2ccccc12
3. CCNc1cncc(Nc2snc(C)c2C(=O)Nc2ccc(F)c(F)c2)n1
4. COc1ccc(NC(=O)c2c(C)nsc2Nc2ncccc2C#N)cn1
5. Cc1nsc(Nc2ccc(C#N)cn2)c1C(=O)Nc1ccc(F)c(F)c1

Response:
> 20 µM
> 20 µM
> 20 µM
> 20 µM
> 20 µM

* * *

# Tested on: spindle assembly checkpoint
# assay_details: SAC-Formation - Paclitaxel-Induced Assay
# Assay type: cell-based
# condition_context: Homo sapiens; HeLa cells, paclitaxel 0.05 μM, 24 h, phosphorylated histone H3 on serine 10
pIC50: −log10 of the molar value.
Quick rule for you: pIC50 at 6 or higher means y, lower means n.

Prompt: Identify whether the reported pIC50 of the following molecule is 6 or greater: Cc1nsc(Nc2ccc(C#N)cn2)c1C(=O)Nc1ccc(OC(C)C)nc1
Response: n

Prompt: Identify whether the reported pIC50 of the following molecule is 6 or greater: COc1ccc(NC(=O)c2c(C)nsc2Nc2cnc3cccc(C)c3n2)cn1
Response: y

Prompt: Identify whether the reported pIC50 of the following molecule is 6 or greater: COc1ccc(NC(=O)c2c(C)nsc2Nc2nccnc2C#N)cn1
Response: n

Prompt: Identify whether the reported pIC50 of the following molecule is 6 or greater: CCc1ccccc1NC(=O)c1c(C)nsc1Nc1nc(C)nc2sccc12
Response: y

Prompt: Identify whether the reported pIC50 of the following molecule is 6 or greater: Cc1nsc(Nc2cncc(C(=O)N3CCCC3)n2)c1C(=O)Nc1ccc(F)c(F)c1
Response: y

Further cases:
Prompt: Identify whether the reported pIC50 of the following molecule is 6 or greater: CCc1ccccc1NC(=O)c1c(C)nsc1Nc1nccc(-c2ccccc2)n1
Response: n

Prompt: Identify whether the reported pIC50 of the following molecule is 6 or greater: CCNC(=O)c1cncc(Nc2snc(C)c2C(=O)Nc2ccc(F)c(F)c2)n1
Response: y

* * *

Task for the reader: assign each of the following compounds its reported pIC50.
# System: spindle assembly checkpoint
# assay_details: SAC-Formation - Paclitaxel-Induced Assay
# Type: cell-based
# condition_context: Homo sapiens; HeLa cells, paclitaxel 0.05 μM, 24 h, phosphorylated histone H3 on serine 10
Numbers only, as −log10 of the molar value.

Prompt: Find the recorded pIC50 belonging to CNC(=O)c1ccc(Nc2snc(C)c2C(=O)Nc2ccc(F)c(F)c2)nn1 and report it.
Response: 5.33

Prompt: Find the recorded pIC50 belonging to Cc1nsc(Nc2nc3c(C(F)(F)F)ccnc3s2)c1C(=O)Nc1ccc(F)c(F)c1 and report it.
Response: 6.54

Prompt: Find the recorded pIC50 belonging to CNC(=O)c1cnc(Nc2snc(C)c2C(=O)Nc2ccc(F)c(F)c2)cn1 and report it.
Response: 7.24

Prompt: Find the recorded pIC50 belonging to CCOC(=O)c1cnn2ccc(Nc3snc(C)c3C(=O)Nc3ccc(F)c(F)c3)nc12 and report it.
Response: 6.34

Prompt: Find the recorded pIC50 belonging to Cc1nsc(Nc2cnccn2)c1C(=O)Nc1ccc(F)c(F)c1 and report it.
Response: 6.16

Look up pIC50 for the entries below, preserving their order.
1. Cc1nsc(Nc2cnc(C(=O)N(C)C)cn2)c1C(=O)Nc1ccc(F)c(F)c1
2. Cc1nsc(Nc2cncc(C(F)(F)F)n2)c1C(=O)Nc1ccc(F)c(F)c1
3. Cc1nsc(Nc2cncc(Cl)n2)c1C(=O)Nc1ccc(F)c(F)c1
4. Cc1nsc(Nc2ccn3nccc3n2)c1C(=O)Nc1ccc(F)c(F)c1
5. COc1ccc(Oc2ccc(NC(=O)c3c(C)nsc3Nc3cnc4ccccc4n3)cn2)cc1

Response:
1. 5.72
2. 7.11
3. 7.08
4. 6.41
5. 5.32

Look up pIC50 for the entries below, preserving their order.
1. CCc1ccnc(Nc2snc(C)c2C(=O)Nc2ccccc2CC)n1
2. Cc1nsc(Nc2nc3c(C(F)(F)F)cccc3s2)c1C(=O)Nc1ccc(Cl)c(F)c1
3. CCc1ccccc1NC(=O)c1c(C)nsc1Nc1ncccc1C#N

Response:
4.72
6.23
4.74

* * *

# System: spindle assembly checkpoint
# assay_details: SAC-Formation - Nocodazole-Induced Assay
# Format: cell-based
# condition_context: Homo sapiens; HeLa cells, nocodazole 0.1 μg/ml, 24 h, phosphorylated histone H3 on serine 10
satisfied if IC50 is below 1000 nM. not satisfied if not; exact matches included in not satisfied.

Prompt: For this compound, is IC50 lower than 1000 nM? COC(=O)c1cnc(Nc2snc(C)c2C(=O)Nc2ccc(F)c(F)c2)cn1 [Example 59]
Response: satisfied

Prompt: For this compound, is IC50 lower than 1000 nM? CNc1cncc(Nc2snc(C)c2C(=O)Nc2ccc(F)c(F)c2)n1 [Example 132]
Response: not satisfied

Prompt: For this compound, is IC50 lower than 1000 nM? CCOC(=O)c1coc(Nc2snc(C)c2C(=O)Nc2ccc(OC)nc2)n1 [Example 100]
Response: not satisfied

Further cases:
Prompt: For this compound, is IC50 lower than 1000 nM? Cc1nsc(Nc2ccc(C#N)cn2)c1C(=O)Nc1ccc(OC(C)C)nc1 [Example 110]
Response: satisfied

Prompt: For this compound, is IC50 lower than 1000 nM? CCOC(=O)c1coc(Nc2snc(C)c2C(=O)Nc2ccc(F)c(F)c2)n1 [Example 98]
Response: not satisfied

Prompt: For this compound, is IC50 lower than 1000 nM? COc1ccc(NC(=O)c2c(C)nsc2Nc2nc3ncc(C(F)(F)F)cc3s2)cn1 [Example 124]
Response: not satisfied

Prompt: For this compound, is IC50 lower than 1000 nM? Cc1nsc(Nc2cnc3cc(C(F)(F)F)ccc3n2)c1C(=O)Nc1ccc(Cl)c(F)c1 [Example 68]
Response: satisfied

Prompt: For this compound, is IC50 lower than 1000 nM? COc1ccc(NC(=O)c2c(C)nsc2Nc2cnc3ccccc3n2)cn1 [Example 94]
Response: satisfied

Prompt: For this compound, is IC50 lower than 1000 nM? CCc1ccccc1NC(=O)c1c(C)nsc1Nc1ncccc1C(F)(F)F [Example 3]
Response: not satisfied

Prompt: For this compound, is IC50 lower than 1000 nM? COc1ccc(NC(=O)c2c(C)nsc2Nc2nc(-c3ccc(Cl)cc3)cs2)cn1 [Example 156]
Response: satisfied

Prompt: For this compound, is IC50 lower than 1000 nM? CCc1ccccc1NC(=O)c1c(C)nsc1Nc1cc(-n2ccnc2)ncn1 [Example 9]
Response: not satisfied

Prompt: For this compound, is IC50 lower than 1000 nM? CCOC(=O)c1cc(C)nc(Nc2snc(C)c2C(=O)Nc2ccccc2CC)c1 [Example 139]
Response: not satisfied

Prompt: For this compound, is IC50 lower than 1000 nM? Cc1nsc(Nc2ccc(C#N)cn2)c1C(=O)Nc1ccc(Cl)c(F)c1 [Example 52]
Response: satisfied

Prompt: For this compound, is IC50 lower than 1000 nM? CCOC(=O)c1sc(Nc2snc(C)c2C(=O)Nc2ccccc2CC)nc1C [Example 26]
Response: satisfied

Prompt: For this compound, is IC50 lower than 1000 nM? CCc1ccccc1NC(=O)c1c(C)nsc1Nc1cc(NC)ncn1 [Example 15]
Response: not satisfied

Prompt: For this compound, is IC50 lower than 1000 nM? COc1ccc(NC(=O)c2c(C)nsc2Nc2cccc(C#N)n2)cn1 [Example 37]
Response: not satisfied

Prompt: For this compound, is IC50 lower than 1000 nM? COc1ccc(NC(=O)c2c(C)nsc2Nc2cc(C#N)ccn2)cn1 [Example 25]
Response: not satisfied

Prompt: For this compound, is IC50 lower than 1000 nM? CCc1ccccc1NC(=O)c1c(C)nsc1Nc1ncnc2ccccc12 [Example 10]
Response: not satisfied
